- RUN_DESCRIPTION: Pharmacokinetics of PA-96 after single oral (p.o.) administration to mice
- Assay type: in vivo, CD-1 mice
- TEST_SETTINGS: both sexes, CD-1, mouse, whole blood, oral; p.o. 5 mg/kg, assessed via AUC of i.v. injection at 1 mg/kg, mice
MEASURE_NAME: bioavailability

Request: Param item = C=C(C)[C@@H]1CC=C(C)[C@@H](Sc2nc[nH]n2)[C@@H]1O ; retrieve measured bioavailability.
Response: ~7%

###

- RUN_DESCRIPTION: Pharmacokinetics of PA-96 after intravenous (i.v.) injection to mice
- Format: in vivo, CD-1 mice
- TEST_SETTINGS: both sexes, CD-1, mouse, whole blood, iv, 10 mg/kg, mean ± SEM, n = 2
MEASURE_NAME: half-life (min)
// units = min; emit number, no label

Request: Param item = C=C(C)[C@@H]1CC=C(C)[C@@H](Sc2nc[nH]n2)[C@@H]1O ; retrieve measured half-life.
Response: 26.1

###

- RUN_DESCRIPTION: Pharmacokinetics of PA-96 after intravenous (i.v.) injection to mice
- Type: in vivo, CD-1 mice
- TEST_SETTINGS: both sexes, CD-1, mouse, whole blood, iv, 1 mg/kg, mean ± SEM, n = 6
MEASURE_NAME: half-life

Request: Param item = C=C(C)[C@@H]1CC=C(C)[C@@H](Sc2nc[nH]n2)[C@@H]1O [PA-96] ; retrieve measured half-life.
Response: 37 min

###

- RUN_DESCRIPTION: Pharmacokinetics of PA-96 after double p.o. administration to mice
- Assay type: in vivo, CD-1 mice
- TEST_SETTINGS: both sexes, CD-1, mouse, whole blood, po, 5 mg/kg, double p.o. 2×5 mg/kg, 1st administration, mean ± SEM, n = 6
MEASURE_NAME: Cmax (ng/mL)
// units = ng/mL; emit number, no label

Request: Param item = C=C(C)[C@@H]1CC=C(C)[C@@H](Sc2nc[nH]n2)[C@@H]1O ; retrieve measured Cmax.
Response: 60

###

- RUN_DESCRIPTION: Pharmacokinetics of PA-96 after single oral (p.o.) administration to mice
- Type: in vivo, CD-1 mice
- TEST_SETTINGS: both sexes, CD-1, mouse, po; single p.o., 5 mg/kg, mice, whole blood, mean ± SEM, n = 4; read-out: Tmax (converted)
MEASURE_NAME: Tmax (min)
// units = min; emit number, no label

Request: Param item = C=C(C)[C@@H]1CC=C(C)[C@@H](Sc2nc[nH]n2)[C@@H]1O ; retrieve measured Tmax.
Response: 6.3

###

- RUN_DESCRIPTION: Pharmacokinetics of PA-96 after intravenous (i.v.) injection to mice
- Assay type: in vivo, CD-1 mice
- TEST_SETTINGS: both sexes, CD-1, mouse, whole blood, iv, 10 mg/kg, mean ± SEM, n = 2
MEASURE_NAME: AUC(0-t) (ng·h/mL)
// units = ng·h/mL; emit number, no label

Request: Param item = C=C(C)[C@@H]1CC=C(C)[C@@H](Sc2nc[nH]n2)[C@@H]1O [PA-96] ; retrieve measured AUC(0-t).
Response: 2170

###

- RUN_DESCRIPTION: Pharmacokinetics of PA-96 after single oral (p.o.) administration to mice
- Type: in vivo, CD-1 mice
- TEST_SETTINGS: both sexes, CD-1, mouse, whole blood, po, 10 mg/kg, single p.o., mice, mean ± SEM, n = 4
MEASURE_NAME: half-life
Give the figure together with its unit, number first.

Request: Param item = C=C(C)[C@@H]1CC=C(C)[C@@H](Sc2nc[nH]n2)[C@@H]1O [PA-96] ; retrieve measured half-life.
Response: 15 min

###

- RUN_DESCRIPTION: Pharmacokinetics of PA-96 after intravenous (i.v.) injection to mice
- Assay type: in vivo, CD-1 mice
- TEST_SETTINGS: both sexes, CD-1, mouse, whole blood, iv, 10 mg/kg, n = 2
MEASURE_NAME: Tmax
Give the figure together with its unit, number first.

Request: Param item = C=C(C)[C@@H]1CC=C(C)[C@@H](Sc2nc[nH]n2)[C@@H]1O [PA-96] ; retrieve measured Tmax.
Response: 3 min

###

- RUN_DESCRIPTION: Pharmacokinetics of PA-96 after intravenous (i.v.) injection to mice
- Type: in vivo, CD-1 mice
- TEST_SETTINGS: both sexes, CD-1, mouse, whole blood, iv, 1 mg/kg, mean ± SEM, n = 6
MEASURE_NAME: AUC(0-t) (ng·h/mL)
// units = ng·h/mL; emit number, no label

Request: Param item = C=C(C)[C@@H]1CC=C(C)[C@@H](Sc2nc[nH]n2)[C@@H]1O [PA-96] ; retrieve measured AUC(0-t).
Response: 85

###

- RUN_DESCRIPTION: Pharmacokinetics of PA-96 after single oral (p.o.) administration to mice
- Format: in vivo, CD-1 mice
- TEST_SETTINGS: both sexes, CD-1, mouse, whole blood, po; single p.o., 5 mg/kg, mice, mean ± SEM, n = 4
MEASURE_NAME: AUC(0-t) (ng·h/mL)
// units = ng·h/mL; emit number, no label

Request: Param item = C=C(C)[C@@H]1CC=C(C)[C@@H](Sc2nc[nH]n2)[C@@H]1O [PA-96] ; retrieve measured AUC(0-t).
Response: 28.3

###

- RUN_DESCRIPTION: Pharmacokinetics of PA-96 after intravenous (i.v.) injection to mice
- Assay type: in vivo, CD-1 mice
- TEST_SETTINGS: both sexes, CD-1, mouse, whole blood, iv, 1 mg/kg, mean ± SEM, n = 6
MEASURE_NAME: Tmax (min)
// units = min; emit number, no label

Request: Param item = C=C(C)[C@@H]1CC=C(C)[C@@H](Sc2nc[nH]n2)[C@@H]1O ; retrieve measured Tmax.
Response: 3.3

###

- RUN_DESCRIPTION: Pharmacokinetics of PA-96 after single oral (p.o.) administration to mice
- Type: in vivo, CD-1 mice
- TEST_SETTINGS: both sexes, CD-1, mouse, whole blood, po, 5 mg/kg, single p.o., mice, mean ± SEM, n = 4
MEASURE_NAME: Cmax

Request: Param item = C=C(C)[C@@H]1CC=C(C)[C@@H](Sc2nc[nH]n2)[C@@H]1O [PA-96] ; retrieve measured Cmax.
Response: ~36 ng/mL

###

- RUN_DESCRIPTION: Pharmacokinetics of PA-96 after double p.o. administration to mice
- Format: in vivo, CD-1 mice
- TEST_SETTINGS: both sexes, CD-1, mouse, whole blood, po, 5 mg/kg, double p.o. 2×5 mg/kg, 1st administration, mean ± SEM, n = 6
MEASURE_NAME: AUC(0-t) (ng·h/mL)
// units = ng·h/mL; emit number, no label

Request: Param item = C=C(C)[C@@H]1CC=C(C)[C@@H](Sc2nc[nH]n2)[C@@H]1O ; retrieve measured AUC(0-t).
Response: 25

###

- RUN_DESCRIPTION: Pharmacokinetics of PA-96 after double p.o. administration to mice
- Assay type: in vivo, CD-1 mice
- TEST_SETTINGS: both sexes, CD-1, mouse, whole blood, po, 5 mg/kg, double p.o. 2×5 mg/kg, 1st administration, mean ± SEM, n = 6
MEASURE_NAME: half-life (min)
// units = min; emit number, no label

Request: Param item = C=C(C)[C@@H]1CC=C(C)[C@@H](Sc2nc[nH]n2)[C@@H]1O ; retrieve measured half-life.
Response: 21

###

- RUN_DESCRIPTION: Pharmacokinetics of PA-96 after intravenous (i.v.) injection to mice
- Type: in vivo, CD-1 mice
- TEST_SETTINGS: both sexes, CD-1, mouse, whole blood, iv, 10 mg/kg, mean ± SEM, n = 2
MEASURE_NAME: Cmax

Request: Param item = C=C(C)[C@@H]1CC=C(C)[C@@H](Sc2nc[nH]n2)[C@@H]1O [PA-96] ; retrieve measured Cmax.
Response: > 7700 ng/mL

###

- RUN_DESCRIPTION: Pharmacokinetics of PA-96 after single oral (p.o.) administration to mice
- Format: in vivo, CD-1 mice
- TEST_SETTINGS: both sexes, CD-1, mouse, po; single p.o., 10 mg/kg, mice, whole blood, mean ± SEM, n = 4; read-out: Tmax (converted)
MEASURE_NAME: Tmax (min)
// units = min; emit number, no label

Request: Param item = C=C(C)[C@@H]1CC=C(C)[C@@H](Sc2nc[nH]n2)[C@@H]1O ; retrieve measured Tmax.
Response: 8.8
